- Tested on: Escherichia coli TOP10;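 also: peptides expressed intracellularly from a pBAD plasmid library in pooled LB shake-flask culture, induced with 0.3% L-arabinose, DNA abundance read by NGS, three biological replicates, DESeq2 with apeglm shrinkage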
- TEST_DETAILS: shrunken log2 fold change of peptide-encoding DNA abundance (4.5 h post-induction vs induction); higher = less antimicrobial activity (less host growth inhibition)
- MEASUREMENT_SETUP: time post-induction: 4.5 h; library: site-saturation at positions 5, 18, 19, 20
Output Condition met for shrunken log2 fold change not less than 0.005; output Condition not met otherwise.

SEQUENCE_CHAIN	LABEL_CLASS
RRIRKRPPRLPRPRPRPFIPPRP	Condition not met
RRIRARPPRLPRPRPRPGRQPRP	Condition met
RRIRERPPRLPRPRPRPKARPRP	Condition not met
RRIRCRPPRLPRPRPRPRTRPRP	Condition met
RRIRPRPPRLPRPRPRPIIYPRP	Condition not met
RRIRARPPRLPRPRPRPKSFPRP	Condition met
RRIRTRPPRLPRPRPRPNAIPRP	Condition not met
RRIRLRPPRLPRPRPRPCLGPRP	Condition not met
RRIRPRPPRLPRPRPRPGNEPRP	Condition not met
RRIRLRPPRLPRPRPRPKTVPRP	Condition not met
RRIRDRPPRLPRPRPRPVGDPRP	Condition met
RRIRLRPPRLPRPRPRPKSTPRP	Condition not met
RRIRYRPPRLPRPRPRPAPVPRP	Condition met
RRIRFRPPRLPRPRPRPFHYPRP	Condition met
RRIRERPPRLPRPRPRPTGHPRP	Condition not met
RRIRIRPPRLPRPRPRPDNPPRP	Condition not met
RRIRGRPPRLPRPRPRPTRIPRP	Condition met
RRIRFRPPRLPRPRPRPYEAPRP	Condition not met
RRIRGRPPRLPRPRPRPWTYPRP	Condition met
RRIRMRPPRLPRPRPRPASEPRP	Condition met
RRIRARPPRLPRPRPRPSQGPRP	Condition not met
RRIRIRPPRLPRPRPRPWRRPRP	Condition met
RRIRLRPPRLPRPRPRPHHFPRP	Condition not met
RRIRYRPPRLPRPRPRPRGYPRP	Condition not met
RRIRRRPPRLPRPRPRPYPQPRP	Condition not met
RRIRPRPPRLPRPRPRPSFMPRP	Condition not met
RRIRCRPPRLPRPRPRPKFCPRP	Condition not met
RRIRYRPPRLPRPRPRPGPSPRP	Condition not met
RRIRPRPPRLPRPRPRPYMWPRP	Condition not met
RRIRQRPPRLPRPRPRPMQNPRP	Condition not met
RRIRMRPPRLPRPRPRPGNYPRP	Condition not met
